SYSTEM_NAME: Recombinant ROCK1 (amino acids 1-535) (Homo sapiens (Human), UniProt Q13464)
Sequence (Q13464 1-535): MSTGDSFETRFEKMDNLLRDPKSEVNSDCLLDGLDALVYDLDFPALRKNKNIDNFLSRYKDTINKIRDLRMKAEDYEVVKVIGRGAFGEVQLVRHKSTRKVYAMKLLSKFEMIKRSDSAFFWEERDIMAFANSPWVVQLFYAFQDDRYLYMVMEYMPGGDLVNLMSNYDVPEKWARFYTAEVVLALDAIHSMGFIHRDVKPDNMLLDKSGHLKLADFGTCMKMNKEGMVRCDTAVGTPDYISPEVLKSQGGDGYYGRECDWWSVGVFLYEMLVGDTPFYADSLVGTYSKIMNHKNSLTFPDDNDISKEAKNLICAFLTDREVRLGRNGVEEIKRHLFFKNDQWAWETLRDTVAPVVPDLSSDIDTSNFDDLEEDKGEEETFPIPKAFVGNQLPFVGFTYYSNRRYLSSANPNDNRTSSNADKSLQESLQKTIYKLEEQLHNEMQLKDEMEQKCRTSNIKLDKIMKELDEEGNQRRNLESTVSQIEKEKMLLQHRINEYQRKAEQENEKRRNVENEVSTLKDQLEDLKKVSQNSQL
ASSAY_COMMENT: Z′-Lyte kinase assay, ROCK1
Type: biochemical
PARTICULARS: 3 μM compound; read-out: ROCK1 % inh. @ [conc]
VALUE_KIND: inhibition at 3 µM (%)
The response must be a number in % with no trailing unit.

Below are worked cases with known answers.
- MOLECULE: "c1ccc(C2CCN(c3nccc(Nc4ccc5[nH]ncc5c4)n3)CCN2)cc1 (stereo not drawn)"
  ENDPOINT_UNIT: "%"
  inhibition at 3 µM: 100
- MOLECULE: "Cc1cc(Nc2ccc3[nH]ncc3c2)nc(N2CCCNCC2)n1"
  ENDPOINT_UNIT: "%"
  inhibition at 3 µM: 98.3

# context switch: different molecule, same inhibition at 3 µM
Asked: Notebook entry, Recombinant ROCK1 (amino acids 1-535) (Homo sapiens (Human), UniProt Q13464) assay: inhibition at 3 µM of CC1CCN(c2nccc(Nc3ccc(-c4ccncc4)cc3)n2)CCN1 (stereo not drawn) = ?
Given back: 99
